Experiment: Phase 1 single-dose plasma pharmacokinetics in subjects with normal hepatic function, mild or moderate hepatic impairment
Format: in vivo, human
Details: human, plasma, po, 200 mg, Normal Hepatic Function; 200 mg single oral dose; read-out: AUC0-∞, Arithmetic Mean
MEASUREMENT_TYPE: AUC(0-inf) (ng·h/mL)
Report the value in ng·h/mL with no unit label.

Field request: AUC(0-inf) | item: N#CC1(c2ccc(NC(=O)c3cccnc3NCc3ccncc3)cc2)CCCC1 [Rivoceranib] 3180

---

Experiment: Phase 1 single-dose plasma pharmacokinetics in subjects with normal hepatic function, mild or moderate hepatic impairment
Type: in vivo, human
Settings: human, plasma, po, 200 mg, Mild Hepatic Impairment; 36 h; 200 mg single oral dose; read-out: Plasma concentration, Geometric Mean
MEASUREMENT_TYPE: concentration at 36 h (ng/mL)
The figure you give is taken to be in ng/mL; do not add the unit.

Dear colleague, I am looking for the recorded concentration at 36 h of the following compound: N#CC1(c2ccc(NC(=O)c3cccnc3NCc3ccncc3)cc2)CCCC1 15.2
